The following binders are shown together with reported Maximum MFI values.
Target: T1, human BCMA (human, UniProt Q02223 1-184)
T1 construct: whole, on cells; the cell line is named under assay; also called TNFRSF17; CD269
T1 sequence (looked up): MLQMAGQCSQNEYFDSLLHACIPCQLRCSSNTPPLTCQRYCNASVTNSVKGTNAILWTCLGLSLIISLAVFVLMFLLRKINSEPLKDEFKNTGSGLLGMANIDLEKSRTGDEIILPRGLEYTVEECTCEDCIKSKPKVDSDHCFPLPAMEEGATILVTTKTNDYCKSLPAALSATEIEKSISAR
Assay: flow cytometry, HEK293T/hBCMA cells
Just the number, please, no unit attached.

{"columns": ["binder", "value-measured"],
 "data": [
  ["PR001046, anti-BCMA HCAb antibody, clone 1005P63B7 (antibody, human IgG1, V domains shown, Heavy-chain-only antibody (HCAb), human IgG1 Fc, no light chain) VH: EVQLVETGGGLIQPGGSLRLSCAASGFTVSDNYMTWVRQAPGKGLEWVSVIFSGGNTYYADSVKGRFTISRDNAKNTLYLQMNSLRAEDTALYYCARRNYDDTRGTDVFDIWGQGTMVTVSS", 63400]
]}

Q: Which value of Maximum MFI has been reported for PR001035, anti-BCMA HCAb antibody, clone 1005P36F3 (antibody, human IgG1, V domains shown, Heavy-chain-only antibody (HCAb), human IgG1 Fc, no light chain) VH: EVQLVETGGGLIQPGGSLRLSCAASGFTVSSNYMTWVRQAPGKGLEWVSVIFSGGSTYYADSVKGRFTISRDNSKNTLYLQMNSLRAEDTAVYYCARRIAVAGHDVFDIWGQGTMVTVSS in the records?
A: 39800

Q: Maximum MFI for PR000274, anti-BCMA monoclonal antibody CA8-J6M0 (antibody, human IgG1, kappa, V domains shown, Control antibody; also called Positive control 1; CA8-J6M0 hIgG1) VH: QVQLVQSGAEVKKPGSSVKVSCKASGGTFSNYWMHWVRQAPGQGLEWMGATYRGHSDTYYNQKFKGRVTITADKSTSTAYMELSSLRSEDTAVYYCARGAIYDGYDVLDNWGQGTLVTVSS VL: DIQMTQSPSSLSASVGDRVTITCSASQDISNYLNWYQQKPGKAPKLLIYYTSNLHSGVPSRFSGSGSGTDFTLTISSLQPEDFATYYCQQYRKLPWTFGQGTKLEIKR ?
A: 86500

Q: Any idea what its Maximum MFI is? The binder is PR000943, anti-BCMA HCAb antibody, clone 1005P16A10 (antibody, human IgG1, V domains shown, Heavy-chain-only antibody (HCAb), human IgG1 Fc, no light chain) VH: EVQLVETGGGLIQPGGSLRLSCAASGFPVSSNYMSWVRQAPGKGLEWVSVIFSGGRTYYADSVKGRFTISRDNSKNTLYLQMNSLRAEDTAVYYCARRNWIDGRDAFDIWGQGTMVTVSS
A: 70000
